tested on: CCRIS mutagenicity, Ames/micronucleus/aberration tests; assay: CCRIS mutagenicity studies; conditions: Test System: AMES SALMONELLA TYPHIMURIUM; Strain/Indicator: TA100(NR); Metabolic Activation: NONE; Method: STANDARD PLATE
Calls of active or inactive are those of the source. How the calls were made is not given here.
Could you please pick one outcome from this set? 1.0 (active), 0.0 (inactive)

Solved cases (4 shown):
molSmiles	assayedTarget	qualitativeLabel
COc1ccc(N(CCCl)CCCl)c2oc([N+](=O)[O-])cc12	CCRIS mutagenicity, Ames/micronucleus/aberration tests	1.0
O=[N+]([O-])c1ccc2c3c(c(O)ccc13)-c1ccccc1-2	CCRIS mutagenicity, Ames/micronucleus/aberration tests	0.0
O=[N+]([O-])c1cc2ccc3cccc4ccc(c1)c2c34	CCRIS mutagenicity, Ames/micronucleus/aberration tests	0.0
CCOc1ccc(N=O)cc1	CCRIS mutagenicity, Ames/micronucleus/aberration tests	1.0

API: the following record is the query input.
query: Per the assay record, what outcome was assigned to "COc1cccc2c1cc([N+](=O)[O-])c1c(C(=O)O)cc3c(c12)OCO3" ?
result: 0.0

---

system: CCRIS mutagenicity, Ames/micronucleus/aberration tests; test: CCRIS mutagenicity studies; conditions: Test System: MOUSE LYMPHOMA; Strain/Indicator: L5178Y (TK+/TK-); Metabolic Activation: NONE; Method: SUSPENSION/PLATE
The source made the active and inactive calls. The rule behind the calls is not given here.
Could you please pick one outcome from this set? active, inactive

Solved cases (3 shown):
molSmiles	qualitativeLabel
CC(=O)Nc1cccc2c1-c1ccccc1C2	inactive
CCOC(=O)CBr	active
NS(=O)(=O)c1cc(C(=O)O)c(NCc2ccco2)cc1Cl	inactive

query: Per the assay record, what outcome was assigned to "CCCO" ?
result: inactive

query: Per the assay record, what outcome was assigned to "c1ccc2c(c1)Cc1ccccc1-2" ?
result: active

query: Per the assay record, what outcome was assigned to "O=Nc1ccc(NO)cc1" ?
result: active

---

tested on: CCRIS mutagenicity, Ames/micronucleus/aberration tests; experiment: CCRIS mutagenicity studies; settings: Test System: E. COLI; Strain/Indicator: WP2 UVRA; Metabolic Activation: NONE; Method: STANDARD PLATE
Active and inactive are the calls of the source. The rule behind the calls is not given here.
Could you please pick one outcome from this set? Y for active, N for inactive

Solved cases (3 shown):
compound	qualitativeLabel
[Cl][Ni][Cl]	Y
CCC(=O)OCC(=O)[C@@]1(OC(=O)CC)[C@H](C)C[C@H]2[C@H]3[C@H]([C@@H](O)C[C@@]21C)[C@@]1(C)C=CC(=O)C=C1C[C@H]3Cl	N
CCN(CC)N=O	N

query: Per the assay record, what outcome was assigned to "NC(=O)N/N=C/c1ccc([N+](=O)[O-])o1" ?
result: Y

query: Per the assay record, what outcome was assigned to CCC1(CC(=O)O)OCCc2c1[nH]c1c(C)cccc21 (stereo unspecified) ?
result: N

query: Per the assay record, what outcome was assigned to "Nc1cccc2c(N)cccc12" ?
result: N

query: Per the assay record, what outcome was assigned to "Nc1ccc(Cl)cc1" ?
result: N

query: Per the assay record, what outcome was assigned to "CCN(N=O)C(N)=O" ?
result: Y

query: Per the assay record, what outcome was assigned to "O=C1NCCN1c1ncc([N+](=O)[O-])s1" ?
result: Y

query: Per the assay record, what outcome was assigned to "CC(=O)Nc1cccc2c1-c1ccccc1C2" ?
result: N

query: Per the assay record, what outcome was assigned to "[O]=[Cr](=[O])([OH])[O][Cr](=[O])(=[O])[OH]" ?
result: Y

---

tested on: CCRIS mutagenicity, Ames/micronucleus/aberration tests; assay: CCRIS mutagenicity studies; details: Test System: AMES SALMONELLA TYPHIMURIUM; Strain/Indicator: TA1535; Metabolic Activation: NONE; Method: PREINCUBATION
The source made the active and inactive calls. No rule for the calls is given here.
Could you please pick one outcome from this set? 1.0 for active, 0.0 for inactive

Solved cases (5 shown):
compound	qualitativeLabel
CCCCC(CC)COC(=O)CCCCCCCCC(=O)OCC(CC)CCCC (stereo not drawn)	0.0
CCCCCCCOc1ccccc1NC(=O)OCCN1CCCCC1	0.0
C=CC(=O)OCC(Br)CBr (stereo not drawn)	1.0
Clc1ccc(Cl)c(Cl)c1	0.0
O=c1[nH]c(=O)[nH]c(=O)[nH]1	0.0

API: the following record is the query input.
query: Per the assay record, what outcome was assigned to C1=CC2C3C=CC(C3)C2C1 (stereo not drawn) ?
result: 0.0

---

system: CCRIS mutagenicity, Ames/micronucleus/aberration tests; experiment: CCRIS mutagenicity studies; conditions: Test System: AMES SALMONELLA TYPHIMURIUM; Strain/Indicator: TA100; Metabolic Activation: HAMSTER, LIVER, S-9, AROCLOR 1254 (10%); Method: PREINCUBATION
Activity calls are given as the source filed them. No rule for the calls is given here.
Could you please pick one outcome from this set? t for active, f for inactive

Solved cases (5 shown):
molecule	qualitativeLabel
CCCCOCCOCCSC#N	f
Clc1cccc2ccccc12	f
Nc1ccc(Cc2ccc(N)c(Cc3ccc(N)cc3)c2)cc1	t
NCCNCCNCCN	t
CCN(CC)c1ccc2c(-c3ccccc3C(=O)O)c3ccc(=[N+](CC)CC)cc-3oc2c1	f

query: Per the assay record, what outcome was assigned to "ClCCCl" ?
result: f

query: Per the assay record, what outcome was assigned to OCC(O)CCl (stereo not drawn) ?
result: t

query: Per the assay record, what outcome was assigned to "O=[N+]([O-])c1ccc(Nc2ccc(O)cc2)c([N+](=O)[O-])c1" ?
result: t

---

system: CCRIS mutagenicity, Ames/micronucleus/aberration tests; test: CCRIS mutagenicity studies; details: Test System: AMES SALMONELLA TYPHIMURIUM; Strain/Indicator: TA1535; Metabolic Activation: NONE; Method: STANDARD PLATE
Active and inactive are the calls of the source. How the calls were made is not given here.
Could you please pick one outcome from this set? T = active, F = inactive

query: Per the assay record, what outcome was assigned to "CC(=O)c1ccccn1" ?
result: F

query: Per the assay record, what outcome was assigned to "N=NCO" ?
result: T

query: Per the assay record, what outcome was assigned to "CC(C)(CO)[C@@H](O)C(=O)NCCCO" ?
result: F

query: Per the assay record, what outcome was assigned to "C/C=C\c1cc(OC)c(OC)cc1OC" ?
result: T

query: Per the assay record, what outcome was assigned to "S=c1nc[nH]c2nc[nH]c12" ?
result: T

query: Per the assay record, what outcome was assigned to "Nc1ncnc2c1ncn2[C@H]1CC[C@@H](CO)O1" ?
result: F

query: Per the assay record, what outcome was assigned to "CCOC(=O)CC(=O)CCl" ?
result: F

---

Test system: CCRIS mutagenicity, Ames/micronucleus/aberration tests
Assay: CCRIS mutagenicity studies
Conditions: Test System: E. coli; Strain/Indicator: WP2uvrA/pKM101; Metabolic Activation: None; Method: Preincubation
Excerpt: The CCRIS database contains chemical records with carcinogenicity, mutagenicity, tumor promotion, and tumor inhibition test results. It was developed by the National Cancer Institute (NCI). Data are derived from studies cited in primary journals, current awareness tools, NCI reports, and other sources. Test results have been reviewed by experts in carcinogenesis and mutagenesis. CCRIS provides historical information from the years 1985 - 2011. It is no longer updated. […]
Activity calls are given as the source filed them. No rule for the calls is given here.
Could you please pick one outcome from this set? active, inactive

Solved cases (3 shown):
compound	qualitativeLabel
Nc1cccc(N)c1	inactive
O=C(O)c1ccc(Cl)cc1Cl	inactive
ClCCCl	inactive

query: Per the assay record, what outcome was assigned to CCCCC(CC)COC(=O)CCCCCCCCC(=O)OCC(CC)CCCC (stereo not given) ?
result: inactive

query: Per the assay record, what outcome was assigned to "C=CC(=O)OCCO" ?
result: active

---

tested on: CCRIS mutagenicity, Ames/micronucleus/aberration tests; experiment: CCRIS mutagenicity studies; conditions: Test System: AMES SALMONELLA TYPHIMURIUM; Strain/Indicator: TA100; Metabolic Activation: RAT, LIVER, S-9, PHENOBARBITAL AND 5,6-BENZOFLAVONE; Method: PREINCUBATION
Activity calls are given as the source filed them. How the calls were made is not given here.
Could you please pick one outcome from this set? 1 (yes) = active, 0 (no) = inactive

Solved cases (3 shown):
molSmiles	qualitativeLabel
c1cnc2c(c1)ccc1c3cccnc3ccc12	1 (yes)
Fc1ccc2ccc3cccnc3c2c1	1 (yes)
Fc1cc2cccnc2c2ccccc12	1 (yes)

query: Per the assay record, what outcome was assigned to "O=C(O)C(=O)O" ?
result: 0 (no)

query: Per the assay record, what outcome was assigned to "O=C(O)C(Cl)(Cl)Cl" ?
result: 0 (no)

query: Per the assay record, what outcome was assigned to "Cc1ccc(N)cc1N" ?
result: 1 (yes)

query: Per the assay record, what outcome was assigned to "Fc1cnc2ccc3ccccc3c2c1" ?
result: 1 (yes)

query: Per the assay record, what outcome was assigned to "COc1cc(O)c2c(=O)c3cc(O)ccc3oc2c1" ?
result: 0 (no)

Numbers sourced from PubChem BioAssay AID1259407.
